# Test name: CellTiter-Glo cell viability assay
# Format: cell-based
# Measurement setup: human, HEK293T cells
Property: CC50 at 72 h (nM)

{"Molecule": "NC(=O)c1cn([C@@H]2O[C@H](CO)[C@@H](O)[C@H]2O)c2ncnc(N)c12 [Sangivamycin, sangivamycin]", "Property": "CC50 at 72 h", "Scale unit": "nM", "Assay value": 885}

* * *

Catalogue of IC50 values
# System: SARS-CoV-2 B.1.427 (Epsilon)
# Test name: microbe, parasite or virus in culture
# Format: cell-based
# Measurement setup: Severe acute respiratory syndrome coronavirus 2, Calu-3, 24 h

{"Compound": "NC(=O)c1cn([C@@H]2O[C@H](CO)[C@@H](O)[C@H]2O)c2ncnc(N)c12", "IC50 (nM)": 82.2}
{"Compound": "CCC(CC)COC(=O)[C@H](C)N[P@](=O)(OC[C@H]1O[C@@](C#N)(c2ccc3c(N)ncnn23)[C@H](O)[C@@H]1O)Oc1ccccc1 [Remdesivir, remdesivir, reference compound]", "IC50 (nM)": 1500}

* * *

# Test name: CellTiter-Glo cell viability assay, average of 8 cell types
# Type: cell-based
# Measurement setup: human (7 cell types) and grivet (Vero E6), average ± SEM, n = 8 cell types
Property: CC50 (nM)

{"Compound": "NC(=O)c1cn([C@@H]2O[C@H](CO)[C@@H](O)[C@H]2O)c2ncnc(N)c12 [Sangivamycin, sangivamycin]", "Property": "CC50", "Assay value": 617}

* * *

# Test name: Metabolic stability testing, liver microsomes
# Type: in vitro ADME
# Measurement setup: human, pH 7.4, 0.5 mg/mL microsomes, NADPH, read-out: Human liver microsome stability (% remaining at 120 min)

{"Smiles string": "NC(=O)c1cn([C@@H]2O[C@H](CO)[C@@H](O)[C@H]2O)c2ncnc(N)c12", "remaining at 2 h, 5 μM": "100%"}

* * *

# Test name: CellTiter-Glo cell viability assay
# Assay type: cell-based
# Measurement setup: human, A549 cells; A549, 72 h

{"Molecule": "NC(=O)c1cn([C@@H]2O[C@H](CO)[C@@H](O)[C@H]2O)c2ncnc(N)c12 [Sangivamycin, sangivamycin]", "CC50 at 72 h (nM)": 173}

* * *

# System: SARS-CoV-2
# Test name: Combinatorial sangivamycin/remdesivir efficacy testing, Calu-3 cells
# Format: cell-based
# Measurement setup: Severe acute respiratory syndrome coronavirus 2, Calu-3; read-out: IC50 (nM), S:R by [Remdesivir]

{"Compound": "CCC(CC)COC(=O)[C@H](C)N[P@](=O)(OC[C@H]1O[C@@](C#N)(c2ccc3c(N)ncnn23)[C@H](O)[C@@H]1O)Oc1ccccc1 [Remdesivir, remdesivir, reference compound]", "IC50": "4470 nM"}

* * *

# Tested on: KCNH2 (hERG) (Homo sapiens)
# Sequence (Q12809 whole entry): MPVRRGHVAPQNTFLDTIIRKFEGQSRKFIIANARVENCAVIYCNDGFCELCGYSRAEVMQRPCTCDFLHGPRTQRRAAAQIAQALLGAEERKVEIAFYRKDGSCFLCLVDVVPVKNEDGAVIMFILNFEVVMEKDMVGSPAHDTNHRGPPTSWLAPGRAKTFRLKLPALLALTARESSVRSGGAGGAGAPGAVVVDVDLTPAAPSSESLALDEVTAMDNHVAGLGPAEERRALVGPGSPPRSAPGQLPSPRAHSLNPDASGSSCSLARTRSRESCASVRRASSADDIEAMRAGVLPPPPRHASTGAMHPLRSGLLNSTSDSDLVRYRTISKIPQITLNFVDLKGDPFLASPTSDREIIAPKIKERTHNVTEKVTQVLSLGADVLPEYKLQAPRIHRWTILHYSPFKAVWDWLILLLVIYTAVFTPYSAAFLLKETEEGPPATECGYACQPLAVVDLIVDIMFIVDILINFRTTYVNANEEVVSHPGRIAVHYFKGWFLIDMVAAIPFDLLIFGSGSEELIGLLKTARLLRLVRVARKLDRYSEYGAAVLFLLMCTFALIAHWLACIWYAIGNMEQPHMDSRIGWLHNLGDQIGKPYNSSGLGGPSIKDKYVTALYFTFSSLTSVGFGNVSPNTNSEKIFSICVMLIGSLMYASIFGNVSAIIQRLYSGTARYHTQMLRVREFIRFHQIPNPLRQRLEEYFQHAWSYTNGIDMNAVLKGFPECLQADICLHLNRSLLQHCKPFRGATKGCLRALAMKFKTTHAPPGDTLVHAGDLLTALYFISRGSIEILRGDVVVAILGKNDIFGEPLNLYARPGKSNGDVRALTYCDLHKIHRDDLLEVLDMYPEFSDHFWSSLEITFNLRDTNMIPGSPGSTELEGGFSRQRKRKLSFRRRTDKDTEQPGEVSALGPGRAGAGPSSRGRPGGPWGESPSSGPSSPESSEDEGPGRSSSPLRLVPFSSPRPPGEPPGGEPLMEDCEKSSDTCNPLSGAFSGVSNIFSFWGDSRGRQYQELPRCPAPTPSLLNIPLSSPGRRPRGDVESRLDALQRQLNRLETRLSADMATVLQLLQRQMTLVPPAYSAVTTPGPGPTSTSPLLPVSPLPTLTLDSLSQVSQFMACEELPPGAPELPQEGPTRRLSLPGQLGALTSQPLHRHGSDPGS
# Test name: Potassium channel inhibition testing (QPatch HTX electrophysiology)
# Source text: The KCNH2 (hERG) functions as the α subunit of a cardiac potassium channel. Its inhibition by drugs has been implicated in fatal ventricular tachyarrhythmia ([31]). As a predictor of cardiotoxicity and genotoxicity, we therefore evaluated KCNH2 (hERG) inhibition and genotoxicity in the AMES mutagenicity assay. Ruling out inhibition of KCNH2 (hERG) by a novel compound is a mandatory step in establishing drug safety. […]

{"Smiles string": "NC(=O)c1cn([C@@H]2O[C@H](CO)[C@@H](O)[C@H]2O)c2ncnc(N)c12", "IC50": "> 10 µM"}
